- measured.target: mICE (Mus musculus)
- method.summary: Dissociation constant Ki and irreversible rate constant k3 for irreversible inhibitors, ICE
- setup.conditions: continuous assay 60 min, reaction initiated by adding enzyme
measurement.kind: log10 of Ki (log10 of the value in nM)
All values: base-10 log of Ki in nM.

compound	result.value
CC(C)[C@H](NC(=O)COc1cccc2ccccc12)C(=O)N[C@@H](CC(=O)O)C(=O)COc1ccc(F)c(F)c1F	2.45

Query: Provide only the value of recorded log10 of Ki for CC(C)[C@H](NC(=O)COc1cccc2ccccc12)C(=O)N[C@@H](CC(=O)O)C(=O)COc1cccc(F)c1F
Response: 2.55

Query: Provide only the value of recorded log10 of Ki for CC(C)[C@H](NC(=O)COc1cccc2ccccc12)C(=O)NC(CC(=O)O)C(=O)CF (mixture of isomers)
Response: 1.72

Query: Provide only the value of recorded log10 of Ki for CC(C)[C@H](NC(=O)COc1cccc2ccccc12)C(=O)N[C@@H](CC(=O)O)C(=O)COc1ccccc1
Response: 2.42

Query: Provide only the value of recorded log10 of Ki for Cc1cc(OCC(=O)[C@H](CC(=O)O)NC(=O)[C@@H](NC(=O)COc2cccc3ccccc23)C(C)C)cc(=O)o1
Response: 2.49

Query: Provide only the value of recorded log10 of Ki for CC(C)[C@H](NC(=O)CCOc1cccc2ccccc12)C(=O)N[C@@H](CC(=O)O)C(=O)COc1cc(C(F)(F)F)n(-c2ccccc2)n1
Response: 3.14

Query: Provide only the value of recorded log10 of Ki for CC(C)[C@H](NC(=O)COc1cccc2ccccc12)C(=O)N[C@@H](CC(=O)O)C(=O)COC(=O)c1c(Cl)cccc1Cl
Response: 1.90

* * *

- measured.target: mICE (Mus musculus, UniProt P29452)
- Sequence (P29452 123-296 limits assumed): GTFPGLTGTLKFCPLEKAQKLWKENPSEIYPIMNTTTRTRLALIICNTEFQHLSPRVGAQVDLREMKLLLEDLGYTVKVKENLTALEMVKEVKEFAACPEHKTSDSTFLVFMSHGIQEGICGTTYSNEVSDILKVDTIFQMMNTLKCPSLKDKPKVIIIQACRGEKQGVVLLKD
- Sequence (P29452 315-402 limits assumed): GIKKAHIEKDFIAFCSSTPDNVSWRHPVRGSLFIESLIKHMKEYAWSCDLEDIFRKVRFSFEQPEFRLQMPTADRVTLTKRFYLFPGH
- method.summary: Dissociation constant Ki and irreversible rate constant k3 for irreversible inhibitors, ICE
- setup.conditions: continuous assay 60 min, reaction initiated by adding enzyme
pKi: recorded values
Schema: pKi number; meaning minus log10 of the concentration expressed in molar units.

Consider the worked cases shown below.
compound	result.value
CC(C)[C@H](NC(=O)COc1cccc2ccccc12)C(=O)N[C@@H](CC(=O)O)C(=O)COc1c(F)ccc(F)c1F	7.05
CC(C)[C@H](NC(=O)COc1cccc2ccccc12)C(=O)N[C@@H](CC(=O)O)C(=O)COc1ccc(F)cc1F	6.21

Query: Provide only the value of recorded pKi for CC(C)[C@H](NC(=O)CCOc1cccc2ccccc12)C(=O)NC(CC(=O)O)C(=O)CF (mixture of isomers)
Response: 6.61

Query: Provide only the value of recorded pKi for CC(C)[C@H](NC(=O)COc1cccc2ccccc12)C(=O)N[C@@H](CC(=O)O)C(=O)COc1cc(F)ccc1F
Response: 6.40

Query: Provide only the value of recorded pKi for CC(C)[C@H](NC(=O)COc1cccc2ccccc12)C(=O)N[C@@H](CC(=O)O)C(=O)COP(=O)(c1ccccc1)c1ccccc1
Response: 7.20
